Data origin: paper PMC9942528

# PROCEDURE TEXT: Stability assay in rat liver microsomes
# Type: in vitro ADME
# APPLIED CONDITIONS: rat, rat liver microsomes, pH 7.4
Ranges used to classify microsomal CLint at 2 h, 10 µM: lower range (below 6 µL/min/mg), middle range (6 µL/min/mg to below 20 µL/min/mg), upper range (20 µL/min/mg or more)

Please review the entries below; each comes with its answer.
{"COMPOUND": "N#Cc1ccc(C[C@@H](NC(=O)Nc2ccc(F)cc2)C(=O)NC2CCCCNC2=O)cc1 (stereo partly drawn) [(R)-11a]", "CATEGORY LABEL": "lower range"}
{"COMPOUND": "N#Cc1ccc(C[C@H](NC(=O)Nc2ccc(F)cc2)C(=O)NC2CCCCNC2=O)cc1 (stereo partly drawn) [(S)-11a]", "CATEGORY LABEL": "lower range"}
{"COMPOUND": "N#Cc1ccc(C[C@H](NC(=O)Nc2ccc(F)cc2)C(=O)N2Cc3ccccc3C2)cc1 [(S)-11d]", "CATEGORY LABEL": "upper range"}

Please examine the following record next.
// bin(item) where item = N#Cc1ccc(C[C@H](NC(=O)Nc2ccc(F)cc2)C(=O)N2CCCC2)cc1 [(S)-11c] middle range
